Where do the numbers come from? From patent US10150793B2.

System: CHO cells
Test Protocol: Study of metabolism in vitro in CHO cells, steroids in culture medium by GC/MS
Test Parameters: CHO cells
Protocol: Plasma, brain and culture medium levels of pregnenolone (5-Pregnen-3β-ol-20-one), allopregnanolone (3α-hydroxy-5α-pregnan-20-one), epiallopregnanolone (3β-hydroxy-5α-pregnan-ol-20-one), testosterone, and 5α dihydrotestosterone were determined by GC/MS according to the of estraction, purification and quantification protocol described previously (George O, et al., Biol Psychiatry. 2010 68: 956-63, Vallee M, et al., Anal Biochem. 2000, 287:153-66). […]
Value Type: metabolism in downstream active steroids (Reduced metabolism / Metabolized)

Compound | System | Reading
C[C@H](O)[C@@]1(O)CCC2C3CCC4=CC(=O)CC[C@]4(C)C3CC[C@@]21C (stereo in doubt) | CHO cells | Reduced metabolism
CC(=O)[C@@]1(C)CCC2C3CC=C4C[C@@H](F)CC[C@]4(C)C3CC[C@@]21C (stereo partly drawn) | CHO cells | Reduced metabolism
CCO[C@H]1CC[C@@]2(C)C(=CCC3C2CC[C@@]2(C)C3CC[C@@H]2C(C)=O)C1 (stereo partly drawn) | CHO cells | Metabolized
C[C@]12CC[C@H]3[C@@H](CCC4=CC(=O)CC[C@@]43C)[C@@H]1CC[C@@H]2C(=O)CO | CHO cells | Metabolized
CO[C@H]1CC[C@@]2(C)C(=CCC3C2CC[C@@]2(C)C3CC[C@@H]2C(C)=O)C1 (stereo partly drawn) | CHO cells | Metabolized
CC(=O)[C@H]1CCC2C3CC=C4CCCC[C@]4(C)C3CC[C@@]21C (stereo partly drawn) [Compound 37, 3-Dehydroxypregnenolone] | CHO cells | Metabolized
CC(=O)[C@@]1(C)CCC2C3CC=C4C[C@@H](O)CC[C@]4(C)C3CC[C@@]21C (stereo partly drawn) | CHO cells | Reduced metabolism
C=CC[C@]1(C(C)=O)CCC2C3CC=C4C[C@@H](O)CC[C@]4(C)C3CC[C@@]21C (stereo partly drawn) | CHO cells | Metabolized
CC(=O)[C@@]1(Cc2ccccc2)CCC2C3CC=C4C[C@@H](O)CC[C@]4(C)C3CC[C@@]21C (stereo partly drawn) | CHO cells | Reduced metabolism
